Assayed Target: 5-HT2B receptor (Homo sapiens (Human), UniProt P41595)
Sequence (P41595 whole entry, looked up): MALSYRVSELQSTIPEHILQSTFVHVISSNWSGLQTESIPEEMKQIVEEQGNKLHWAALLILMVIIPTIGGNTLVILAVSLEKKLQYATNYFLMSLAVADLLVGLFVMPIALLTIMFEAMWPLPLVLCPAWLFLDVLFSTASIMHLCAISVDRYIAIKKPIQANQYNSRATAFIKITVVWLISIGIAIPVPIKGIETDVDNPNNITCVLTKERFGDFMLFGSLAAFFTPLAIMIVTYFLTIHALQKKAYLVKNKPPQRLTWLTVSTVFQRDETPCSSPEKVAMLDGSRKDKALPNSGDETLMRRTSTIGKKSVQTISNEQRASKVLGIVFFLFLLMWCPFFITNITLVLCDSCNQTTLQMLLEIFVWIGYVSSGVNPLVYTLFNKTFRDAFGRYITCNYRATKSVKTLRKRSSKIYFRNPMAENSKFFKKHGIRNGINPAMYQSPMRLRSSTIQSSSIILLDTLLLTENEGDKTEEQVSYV
Procedure Text: FLIPR Ca2+ flux functional assay at 5-HT2B (HEK293)
Quantity Measured: EC50

Give the observed EC50 of COc1cc(CCCCC(F)(F)F)c(OC)nc1CCN [Compound 35] for 5-HT2B receptor (Homo sapiens (Human), UniProt P41595).
341 nM

# assay system 5-HT2B receptor (Homo sapiens (Human), UniProt P41595): give EC50 of CCC(N)Cc1nc(OC)c(Cl)cc1OC (stereo not drawn) [Compound 18]
> 10000 nM

Give EC50 for this entry on 5-HT2B receptor (Homo sapiens (Human), UniProt P41595): CCSc1cc(OC)c(CCN)nc1OC [Compound 22]
215 nM
